Give measured IC50 for each item. Keep answers brief.
- Test system: MV4-11 cells
- method.notes: Resazurin combination toxicity assay
- Type: cell-based
- cond: Homo sapiens, 48 h, variable VdU/VdA alone or with 1 μM PINK added on the same day, read-out: IC50 value (48 h) for simultaneous addition
# unit: µM | format: bare number

Req: IC50 for C=Cc1cn([C@H]2C[C@H](O)[C@@H](CO)O2)c2ncnc(N)c12 [VdA, 7-vinyl-7-deaza-2′-deoxyadenosine] ?
Resp: 37

Req: # IC50 lookup, item C=Cc1cn([C@H]2C[C@H](O)[C@@H](CO)O2)c(=O)[nH]c1=O [VdU, 5-vinyl-2′-deoxyuridine]
Resp: 124
